Tested on: ICAM-1 expression, BEAS2B cells
Assay protocol: Poly I:C-induced ICAM-1 expression in BEAS2B cells
Assay type: cell-based
Run conditions: Homo sapiens, BEAS-2B; read-out: Poly IC induced ICAM1 in BEAS2B, IC50
Readout name: IC50 (nM)

Compound | Test system | Readout value
COc1ccc(C(=O)NCCN2CCOCC2)cc1Nc1nccc(Oc2ccc(NC(=O)Nc3cc(C(C)C)nn3-c3ccc(C)cc3)c3ccccc23)n1 | ICAM-1 expression, BEAS2B cells | 117
COc1ccc(-n2nc(C(C)(C)C)cc2NC(=O)Nc2ccc(Oc3ccnc(Nc4cc(OC)cc(C(N)=O)c4)n3)c3ccccc23)cc1 | ICAM-1 expression, BEAS2B cells | 2
COc1ccc(-n2nc(C(C)C)cc2NC(=O)Nc2ccc(Oc3ccnc(Nc4cc(C(=O)NCCN5CCOCC5)cc(C(F)(F)F)c4)n3)c3ccccc23)cc1 | ICAM-1 expression, BEAS2B cells | 3.6
COCCOc1cccc(-n2nc(C(C)(C)C)cc2NC(=O)Nc2ccc(Oc3ccnc(Nc4cc(OC)cc(C(=O)NCCN5CCOCC5)c4)n3)c3ccccc23)c1 | ICAM-1 expression, BEAS2B cells | 5.8
COc1cc(Nc2nccc(Oc3ccc(NC(=O)Nc4cc(C(C)C)nn4-c4ccc(C)cc4)c4ccccc34)n2)cc(C(=O)NCCN(C)C)c1 | ICAM-1 expression, BEAS2B cells | 0.2
COc1cc(Nc2nccc(Oc3ccc(NC(=O)Nc4cc(C(F)(F)F)nn4-c4ccc(C)cc4)c4ccccc34)n2)cc(C(=O)NCCN2CCOCC2)c1 | ICAM-1 expression, BEAS2B cells | 32.3
COc1ccc(-n2nc(C3CCCO3)cc2NC(=O)Nc2ccc(Oc3ccnc(Nc4cc(OC)cc(C(=O)NCCN5CCOCC5)c4)n3)c3ccccc23)cc1 (stereo not drawn) | ICAM-1 expression, BEAS2B cells | 2.1
Cc1ccc(-n2nc(C(C)C)cc2NC(=O)Nc2ccc(Oc3ccnc(Nc4cc(C(=O)NCCN5CCOCC5)cc(C(F)(F)F)c4)n3)c3ccccc23)cc1 | ICAM-1 expression, BEAS2B cells | 1.5
COc1cc(Nc2nccc(Oc3ccc(NC(=O)Nc4cc(C(C)C)nn4-c4ccc(C)cc4)c4ccccc34)n2)cc(C(=O)N2CCN(C)CC2)c1 | ICAM-1 expression, BEAS2B cells | 7.5
CNC(=O)c1cccc(Nc2nccc(Oc3ccc(NC(=O)Nc4cc(C(C)(C)C)nn4-c4ccc(C)cc4)c4ccccc34)n2)c1 | ICAM-1 expression, BEAS2B cells | 1.9
COc1ccc(-n2nc(C(C)C)cc2NC(=O)Nc2ccc(Oc3ccnc(Nc4cc(OC)cc(C(=O)NCCN5CCOCC5)c4)c3)c3ccccc23)cc1 | ICAM-1 expression, BEAS2B cells | 26.2
COc1ccc(-n2nc(C(C)C)cc2NC(=O)Nc2ccc(Oc3ccnc(Nc4ccc(C(=O)NCCN5CCOCC5)cc4OC)n3)c3ccccc23)cc1 | ICAM-1 expression, BEAS2B cells | 35.7
CCc1cc(NC(=O)Nc2ccc(Oc3ccnc(Nc4cc(OC)cc(C(=O)NCCN5CCOCC5)c4)n3)c3ccccc23)n(-c2ccc(C)cc2)n1 | ICAM-1 expression, BEAS2B cells | 33
COc1cc(Nc2nccc(Oc3ccc(NC(=O)Nc4cc(C5(C)CC5)nn4-c4ccc(C)cc4)c4ccccc34)n2)cc(C(=O)NCCN2CCOCC2)c1 | ICAM-1 expression, BEAS2B cells | 3.6
COc1cc(C(=O)NCCN(C)C)ccc1Nc1nccc(Oc2ccc(NC(=O)Nc3cc(C(C)C)nn3-c3ccc(C)cc3)c3ccccc23)n1 | ICAM-1 expression, BEAS2B cells | 140
COc1cc(Nc2nccc(Oc3ccc(NC(=O)Nc4cc(C(C)C)nn4-c4ccc(OC)nc4)c4ccccc34)n2)cc(C(=O)NCCN2CCOCC2)c1 | ICAM-1 expression, BEAS2B cells | 7.3
COc1ccc(-n2nc(C3(C)COC3)cc2NC(=O)Nc2ccc(Oc3ccnc(Nc4cccc(C(=O)NCCN5CCOCC5)c4)n3)c3ccccc23)cc1 | ICAM-1 expression, BEAS2B cells | 27.7
COc1ccc(-n2nc(C(C)C)cc2NC(=O)Nc2ccc(Oc3ccnc(Nc4cc(OC)cc(C(=O)NCCN(C)C)c4)n3)c3ccccc23)cc1 | ICAM-1 expression, BEAS2B cells | 1.2
COc1cc(Nc2nccc(Oc3ccc(NC(=O)Nc4cc(C(C)(C)C)nn4-c4ccc(OC)nc4)c4ccccc34)n2)cc(C(=O)NCCN2CCOCC2)c1 | ICAM-1 expression, BEAS2B cells | 1.9
Cc1csc(-n2nc(C(C)(C)C)cc2NC(=O)Nc2ccc(Oc3ccnc(Nc4cccc(C(=O)NCCN5CCOCC5)c4)n3)c3ccccc23)c1 | ICAM-1 expression, BEAS2B cells | 1
COc1cc(Nc2cc(Oc3ccc(NC(=O)Nc4cc(C(C)(C)C)nn4-c4ccc(C)cc4)c4ccccc34)ncn2)cc(C(=O)NCCN2CCOCC2)c1 | ICAM-1 expression, BEAS2B cells | 2.6
COc1cc(Nc2nccc(Oc3ccc(NC(=O)Nc4cc(C5CC5)nn4-c4ccc(C)cc4)c4ccccc34)n2)cc(C(=O)NCCN2CCOCC2)c1 | ICAM-1 expression, BEAS2B cells | 16.6
COc1cc(Nc2nccc(Oc3ccc(NC(=O)Nc4cc(C(C)C)nn4-c4ccc(C)cc4)c4ccccc34)n2)cc(C(=O)NCCN2CCOCC2)c1 | ICAM-1 expression, BEAS2B cells | 1.1
COc1ccc(-n2nc(C(C)C)cc2NC(=O)Nc2ccc(Oc3ccnc(Nc4cc(C)cc(C(=O)NCCN5CCOCC5)c4)n3)c3ccccc23)cc1 | ICAM-1 expression, BEAS2B cells | 135
